ASSAY SYSTEM: TLR2 and CD14 (Homo sapiens, UniProt O60603)
Construct: expressed in transfected cells; host or cells: HEK (HEK-TLR2-CD14 cell line)
Sequence (O60603 21-784): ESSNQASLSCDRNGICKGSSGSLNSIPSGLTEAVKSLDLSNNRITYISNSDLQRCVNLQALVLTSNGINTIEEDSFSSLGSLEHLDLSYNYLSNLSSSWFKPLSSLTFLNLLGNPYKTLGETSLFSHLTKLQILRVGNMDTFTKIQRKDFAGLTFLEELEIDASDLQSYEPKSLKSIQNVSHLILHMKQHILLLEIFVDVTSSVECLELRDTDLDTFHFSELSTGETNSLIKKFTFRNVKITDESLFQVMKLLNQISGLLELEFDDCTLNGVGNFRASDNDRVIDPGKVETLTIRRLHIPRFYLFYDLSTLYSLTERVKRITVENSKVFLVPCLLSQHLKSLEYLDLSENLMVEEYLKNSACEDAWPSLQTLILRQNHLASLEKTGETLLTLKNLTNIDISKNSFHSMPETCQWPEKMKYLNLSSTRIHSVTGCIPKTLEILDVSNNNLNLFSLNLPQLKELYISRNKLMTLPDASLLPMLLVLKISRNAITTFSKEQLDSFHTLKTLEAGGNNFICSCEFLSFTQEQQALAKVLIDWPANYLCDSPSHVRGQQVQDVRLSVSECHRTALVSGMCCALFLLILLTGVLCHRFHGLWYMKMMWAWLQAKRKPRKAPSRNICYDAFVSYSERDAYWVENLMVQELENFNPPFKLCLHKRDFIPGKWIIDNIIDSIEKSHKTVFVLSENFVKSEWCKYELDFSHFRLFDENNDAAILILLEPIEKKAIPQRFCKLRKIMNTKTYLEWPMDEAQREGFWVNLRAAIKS
ASSAY NOTES: HEK-TLR2-CD14 IL-8 secretion
Type: cell-based
EXPERIMENTAL PARAMETERS: 14 ng/ml, 24 h
Description: The HEK293 cell line was chosen for its null or low basal expression of the TLR genes. These cells enable efficient monitoring of TLR activity using ELISA analysis such as IL-8 titration or reporter-based systems that monitor TLR-induced NF-κB activation. HEK-TLR2 cells (Invivogen, Toulouse, France) are engineered HEK293 cells stably transfected with multiple genes from the TLR2 pathway that include TLR2 and genes participating in the recognition or involved in the signaling cascade. […]
PROPERTY NAME: IL-8 secretion, mean (pg/mL)

The examples below pair each entry with its known result.
CCCCCCCCCCCC(=O)O[C@H](CCCCCCCCCCC)CC(=O)N[C@H]1[C@H](OC[C@H]2O[C@H](OCC(O)CO)[C@H](NC(=O)C[C@H](O)CCCCCCCCCCC)[C@@H](O)[C@@H]2O)O[C@H](CO)[C@@H](OP(=O)(O)O)[C@@H]1O (stereo partly shown) [compound 19] | 0.05
CCCCCCCCCCCC(=O)O[C@H](CCCCCCCCCCC)CC(=O)N[C@H]1[C@H](OC[C@H]2O[C@H](OCCC)[C@H](NC(=O)C[C@H](O)CCCCCCCCCCC)[C@@H](O)[C@@H]2O)O[C@H](CO)[C@@H](OP(=O)(O)O)[C@@H]1O [compound 17] | 0.13

(I) CCCCCCCCCCCC(=O)O[C@H](CCCCCCCCCCC)CC(=O)N[C@H]1[C@H](OC[C@H]2O[C@H](OCCOP(=O)(O)O)[C@H](NC(=O)C[C@H](O)CCCCCCCCCCC)[C@@H](O)[C@@H]2O)O[C@H](CO)[C@@H](OP(=O)(O)O)[C@@H]1O [compound 33]
(II) CCCCCCCCCCCC(=O)O[C@H](CCCCCCCCCCC)CC(=O)N[C@H]1[C@H](OC[C@H]2O[C@H](O)[C@H](NC(=O)C[C@H](O)CCCCCCCCCCC)[C@@H](O)[C@@H]2O)O[C@H](CO)[C@@H](OP(=O)(O)O)[C@@H]1O [compound 16]
Between I and II , which one shows the larger IL-8 secretion, mean value? Write the label of whichever entry you select.
I
